runDescription: Rat studies to determine oral bioavailability of bendamustine
testSettings: male, Sprague-Dawley, in vivo, iv, 3 mg/kg
readoutLabel: bioavailability (%)
Answers are plain numbers, in %.

Returns the measured bioavailability for the input molecule. Input: Cn1c(CCCC(=O)O)nc2cc(N(CCCl)CCCl)ccc21 100

====

runDescription: Rat studies to determine oral bioavailability of bendamustine
testSettings: male, Sprague-Dawley, in vivo, po, 10 mg/kg
readoutLabel: bioavailability (%)
One number for each entry, in %.

Returns the measured bioavailability for the input compound. Input: Cn1c(CCCC(=O)O)nc2cc(N(CCCl)CCCl)ccc21 33

====

runDescription: Rat studies to determine oral bioavailability of bendamustine
testSettings: male, Sprague-Dawley, in vivo, iv, 3 mg/kg, read-out: mean AUC0-∞
readoutLabel: AUC(0-inf) (ng·h/mL)
Numbers only, in ng·h/mL.

Returns the measured AUC(0-inf) for the input compound. Input: Cn1c(CCCC(=O)O)nc2cc(N(CCCl)CCCl)ccc21 [bendamustine] 675
